# growth values compiled below
System: MDA-MB-468 breast
Test: NCI-60 one-dose screen, 48 h (100 = growth as untreated, 0 = no growth, -100 = all killed)
Settings: 10 µM unless noted
Compounds without any hit were thinned out: in the full panel of roughly 83,000, 20% have a hit.
Form entry: value (%) — number only.

**Query** // growth lookup, key: Cc1ccc(NCCN(C)CC(C)O)c2c(=O)c3ccc(Cl)cc3sc12 (stereo not drawn)
**Result** -2.72

**Query** Requested read-out: growth. Entry: O=C1c2cccc3cccc(c23)C(=O)N1CC#Cc1ccc2c3c(cccc13)C(=O)N(CCN1CCNCC1)C2=O
**Result** 111

**Query** Give the measured growth of N[C@@H]1CCC[C@H]1NCCCCN1C(=O)c2cccc3cc([N+](=O)[O-])cc(c23)C1=O .
**Result** 31.9

**Query** Please give the measured growth for this molecule: N#C/C(=N\Nc1ccccc1)C(=O)Nc1cc(-c2ccccc2)nn1-c1ccccc1
**Result** -3.2

---

System: MDA-MB-468 breast
Test: NCI-60 one-dose screen, 48 h
Settings: 10 µM unless noted
The panel holds about 83,000 compounds, 20% with a hit somewhere; the sample as a whole holds those more often. Calls of active or inactive are those of the source. Rule for the calls: active = growth percent below 10; inactive = the rest.
Entry note: the call must match one of True for active, False for inactive

Previously resolved entries follow.
compound	test_target	class_name
CCN(CC)c1cc2oc3cc(N)cc(=N)c-3nc2cc1C	MDA-MB-468 breast	False
c1ccc(-c2n(Cc3ccc4ccccc4n3)c3ccccc3[n+]2Cc2ccc3ccccc3n2)cc1	MDA-MB-468 breast	True
CC[Si](CC)(CC)OC1[C@@H](O[Si](CC)(CC)CC)[C@@H](CNC(=O)NC)O[C@H]1n1cnc2c(NC(=O)Nc3ccccc3)ncnc21 (some centres undefined)	MDA-MB-468 breast	False
CCCCCC(=O)N1c2ccccc2NC2=C(C(=O)CC(c3ccc(OC)c(OC)c3)C2)C1c1ccc(C(F)(F)F)cc1 (centres undefined)	MDA-MB-468 breast	False
C=C(C)[C@@H]1CC[C@]2(C(=O)NCCNCCNCCN)CC[C@]3(C)[C@H](CC[C@@H]4[C@@]5(C)CCC(=O)C(C)(C)[C@@H]5CC[C@]43C)[C@@H]12	MDA-MB-468 breast	True

**Query** # outcome recorded in this test, key = Cc1ccc2c(c1)sc(-c1ccc(N(C)C)cc1)[n+]2C
**Result** True

**Query** Called result for Nc1ccc2c(c1)Cc1cc(Cl)c(Cl)cc1-2
**Result** False

**Query** Please share the test call associated with C=C1C(=O)O[C@@H]2C3C(=C(C)CC[C@@H]12)CC1O[C@]13C (some centres undefined) .
**Result** False

**Query** Recorded test outcome, item N#C/C(=N\Nc1ccc(Cl)cc1)C(=O)Nc1cc(-c2ccccc2)nn1-c1ccccc1
**Result** True

**Query** Assay outcome for CCn1cc(C(=O)N/N=C/c2cccc(F)c2)c(=O)c2cc(F)c(N3CCNC(C)C3)c(F)c21 (centres undefined) : what was it?
**Result** False

**Query** Check the results log: what was the call for CCN(CC)CCCCCCCNc1cc(OC)cc2c(C)ccnc12 ?
**Result** False

**Query** Each compound tested received a call. Report the one for Fc1ccc(Nc2nnc(-c3ccc(Cl)cc3)o2)cc1 .
**Result** False

**Query** Assay outcome for CCN(CC)CCCN1C(=O)c2c(c(C)c3c(oc4ccc(O)cc43)c2C)C1=O : what was it?
**Result** False

**Query** Lab log entry: Cc1cc(C(=O)NN)c(C#N)c(=O)[nH]1 — outcome as called in the assay?
**Result** False

**Query** Assay result, entry CN1CCN(C(=O)[C@@]2(C)CC[C@]3(C)CC[C@]4(C)C(=CC[C@@H]5[C@@]6(C)CC[C@H](OC(=O)c7cccnc7)C(C)(C)[C@@H]6CC[C@]54C)[C@@H]3C2)CC1 — outcome?
**Result** False

**Query** Which outcome did this test record for the compound CCCCN1CCCC[C@@H]1C(=O)N[C@H](C(=O)N(C)[C@H](CCc1nc(C(=O)N[C@@H](Cc2ccccc2)C[C@H](C)C(=O)OC)cs1)C(C)C)C(C)C ?
**Result** False

**Query** Field: outcome | Entry: CSC1=N/C(=C\c2cccc(OCc3ccc(Cl)cc3)c2)C(=O)N1
**Result** False

**Query** // param item: CN(Cc1ccccc1)c1nc(Cl)c(C2CC(c3ccccc3)=NN2c2ccccc2)s1 (centres undefined) ; yields the recorded call
**Result** False

**Query** Recorded test outcome, item Clc1ccc(-c2nc(NCCc3ccccc3)nc3c(NCCc4ccccc4)cnn23)cc1
**Result** False

**Query** Answer briefly: the call reported for Cc1ccc(-c2nc(SCC(=O)c3ccccc3)nc(Nc3ccc(S(N)(=O)=O)cc3)c2C#N)cc1 in this assay.
**Result** False

**Query** How did this test come out for CCCc1cc(NC)nc(S(=O)(=O)CC)n1 ?
**Result** False

**Query** Given c1ccc(CCn2cccc2)nc1 , state the outcome it received in this test.
**Result** False

**Query** In this assay, the call recorded for COc1ccc(C(=O)Nc2cccc(C3CCc4c(cc(OC)c(OC)c4OC)O3)c2)cc1 (centres undefined) was what?
**Result** False

**Query** Hey, what did the test say about CCN(CC)CCC(CNc1ccnc2cc(Cl)ccc12)c1ccc(Cl)cc1 (centres undefined) ?
**Result** True

**Query** Call for entry Cc1cc(C(C#N)c2ccc(Cl)cc2)c(Cl)cc1NC(=O)c1cc(I)cc(I)c1O (centres undefined) :
**Result** False

**Query** Assay result, entry COCCOC(=O)NC(=O)Nc1ccc(/C(=N/O)c2ccc(Cl)cc2)cc1 — outcome?
**Result** False

**Query** Outcome? COc1ccc2oc(=O)cc(C3c4ccc([nH]4)C(c4cc(=O)oc5ccc(OC)cc45)c4ccc([nH]4)C(c4cc(=O)oc5ccc(OC)cc45)c4ccc([nH]4)C(c4cc(=O)oc5ccc(OC)cc45)c4ccc3[nH]4)c2c1 (centres undefined)
**Result** True

**Query** Please state the recorded outcome for this compound: O=C1c2cccnc2C(=O)c2c1c(C(=O)OCCc1ccccn1)c1ccccn21
**Result** True

**Query** Look up the recorded call for CC(C)(C)OC(=O)N1CCc2c(sc3ncnc(N/N=C/c4cccc(Br)c4)c23)C1 in this test.
**Result** False
